target_or_test_system: Muscarinic acetylcholine receptor M1 (Homo sapiens)
experiment_summary: Logarithm of affinity (log 1/M) at the free muscarinic acetylcholine receptor M1 by using semiquantitative equilibrium and off-rate assay
Note to self: values exactly at 6 are Condition met. So Log 1/M at or above 6 is Condition met, below is Condition not met.

Example entries and their recorded answers appear below.
O=C1CCc2cc3c(c4c5c(Cl)cccc5n1c24)CCNC3
Condition met
COC(=O)c1ccc2c(c1)c1c3c(cc4c1n2C(=O)CC4)CNCC3
Condition met
O=C1CCc2cc3c(c4c5cc(O)ccc5n1c24)CCNC3
Condition not met
CC1(C)CC(=O)n2c3cccc(O)c3c3c4c(cc1c32)CNCC4
Condition not met

Q) Tell me whether Log 1/M is at least 6 here: COc1cccc2c1c1c3c(cc4c1n2C(=O)CC4(C)C)CNCC3
A) Condition met

Q) Tell me whether Log 1/M is at least 6 here: COc1cccc2c1c1c3c(cc4c1n2C(=O)CC4)CNCC3
A) Condition met

Q) Tell me whether Log 1/M is at least 6 here: O=C1CCc2cc3c(c4c5ccc(O)cc5n1c24)CNCC3
A) Condition met

###

So I've got a bunch of compounds here, and I need their Log 1/M values.
target_or_test_system: Muscarinic acetylcholine receptor M1 (Homo sapiens) (UniProt P11229)
Sequence (whole entry): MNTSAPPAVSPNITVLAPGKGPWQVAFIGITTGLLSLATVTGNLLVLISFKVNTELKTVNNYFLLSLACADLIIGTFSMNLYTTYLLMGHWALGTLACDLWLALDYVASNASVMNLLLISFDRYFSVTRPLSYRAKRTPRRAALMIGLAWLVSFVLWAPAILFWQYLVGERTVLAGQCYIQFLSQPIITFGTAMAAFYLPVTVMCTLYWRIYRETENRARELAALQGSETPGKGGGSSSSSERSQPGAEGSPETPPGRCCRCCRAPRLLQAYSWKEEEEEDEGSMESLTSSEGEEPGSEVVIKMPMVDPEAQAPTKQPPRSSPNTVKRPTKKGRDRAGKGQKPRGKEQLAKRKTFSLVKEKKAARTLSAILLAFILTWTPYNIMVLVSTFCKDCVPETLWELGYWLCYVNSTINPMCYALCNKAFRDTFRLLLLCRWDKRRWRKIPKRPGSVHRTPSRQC
experiment_summary: Logarithm of affinity (log 1/M) at the (N-methyl Scopolamine) NMS-liganded muscarinic acetylcholine receptor M1 by using semiquantitative equilibrium and off-rate assay
Numbers only.

Worked cases, Log 1/M given:
CC1(C)CC(=O)n2c3cccc(O)c3c3c4c(cc1c32)CNCC4
5.84
COC(=O)c1ccc2c3c4c(cc5c3n(c2c1)C(=O)CC5)CNCC4
5.72
COc1cc2c3c4c(c(COC(C)=O)c5c3n(c2cc1OC)C(=O)CC5)CNCC4
6.16
COc1ccc2c(c1)c1c3c(cc4c1n2C(=O)CC4)CNCC3
5.23
O=C1CCc2cc3c(c4c5cc(O)ccc5n1c24)CCNC3
6.07

The following compounds each have a reported value; give each one's Log 1/M.
1. COc1cccc2c3c4c(cc5c3n(c12)C(=O)CC5)CNCC4
2. COc1cc2c3c4c(cc5c3n(c2cc1OC)C(=O)CC5)CCNC4

A)
1. 5.07
2. 6.44

###

target_or_test_system: Muscarinic acetylcholine receptor M4 (Homo sapiens)
experiment_summary: Logarithm of affinity (log 1/M) at the (N-methyl Scopolamine) NMS-liganded muscarinic acetylcholine receptor M4 by using semiquantitative equilibrium and off-rate assay
Please use class 1 for Log 1/M under 6 and class 0 for everything else, ties included.

Example entries and their recorded answers appear below.
COc1cc2c(c(OC)c1OC)c1c3c(cc4c1n2C(=O)CC4)CNCC3
class 0
O=C1CCc2cc3c(c4c5ccc(O)cc5n1c24)CCNC3
class 1
COc1cccc2c1c1c3c(cc4c1n2C(=O)CC4(C)C)CNCC3
class 1

Q) Could you please tell me whether Log 1/M recorded for O=C1CCc2cc3c(c4c5cccc(O)c5n1c24)CCNC3 is less than 6?
A) class 1

Reference for the values: ChEMBL document CHEMBL1135887
